# test_summary: Kinetic solubility in PBS (HPLC solubility assay)
# experimental_parameters: aqueous buffer, kinetic from dmso stock, Solubility sample 1, Tables S1–S3, replicate 1
measure_name: solubility (µM)
One number for each entry, in µM.

Please go through the list and note solubility for each molecule.
1. CCOC(=O)[C@H](CCC(=O)NCCCCCCNC(=O)CSc1nc2c([nH]c3ccccc32)c(=O)n1-c1ccccc1)NC(=O)[C@H](NC(=O)CNC(=O)/C=C/c1ccc(O)c(OC)c1)C(C)C [Compound 28]
2. CCOC(=O)[C@H](CCC(=O)NCCOCCOCCNC(=O)CSc1nc2c([nH]c3ccccc32)c(=O)n1-c1ccccc1)NC(=O)[C@H](NC(=O)CNC(=O)/C=C/c1ccc(O)c(OC)c1)C(C)C [Compound 29]
3. CCOC(=O)[C@H](CCC(=O)N1CCC(CN2CCN(C(=O)CSc3nc4c([nH]c5ccccc54)c(=O)n3-c3ccccc3)CC2)CC1)NC(=O)[C@H](NC(=O)CNC(=O)/C=C/c1ccc(O)c(OC)c1)C(C)C [Compound 31]
4. CCOC(=O)[C@@H](CCC(=O)NCCCOCCOCCOCCCNC(=O)CSc1nc2c([nH]c3ccccc32)c(=O)n1-c1ccccc1)NC(=O)[C@@H](NC(=O)CNC(=O)/C=C/c1ccc(O)c(OC)c1)C(C)C [Compound 30]
5. CCOC(=O)[C@H](CCC(=O)NCCNC(=O)CSc1nc2c([nH]c3ccccc32)c(=O)n1-c1ccccc1)NC(=O)[C@H](NC(=O)CNC(=O)/C=C/c1ccc(O)c(OC)c1)C(C)C [Compound 27]

Result:
1: 115; 2: 232; 3: 7.22; 4: 124; 5: 322

---

# test_summary: Kinetic solubility in PBS (HPLC solubility assay)
# experimental_parameters: aqueous buffer, kinetic from dmso stock, Average solubility, Tables S1–S3, average of two samples
measure_name: solubility (µM)
Answers are plain numbers, in µM.

Worked examples, 2 compounds total:
CCOC(=O)[C@H](CCC(=O)NCCNC(=O)CSc1nc2c([nH]c3ccccc32)c(=O)n1-c1ccccc1)NC(=O)[C@H](NC(=O)CNC(=O)/C=C/c1ccc(O)c(OC)c1)C(C)C    310
CCOC(=O)[C@H](CCC(=O)NCCCCCCNC(=O)CSc1nc2c([nH]c3ccccc32)c(=O)n1-c1ccccc1)NC(=O)[C@H](NC(=O)CNC(=O)/C=C/c1ccc(O)c(OC)c1)C(C)C    80

Please go through the list and note solubility for each compound.
1. CCOC(=O)[C@@H](CCC(=O)NCCCOCCOCCOCCCNC(=O)CSc1nc2c([nH]c3ccccc32)c(=O)n1-c1ccccc1)NC(=O)[C@@H](NC(=O)CNC(=O)/C=C/c1ccc(O)c(OC)c1)C(C)C
2. CCOC(=O)[C@H](CCC(=O)NCCOCCOCCNC(=O)CSc1nc2c([nH]c3ccccc32)c(=O)n1-c1ccccc1)NC(=O)[C@H](NC(=O)CNC(=O)/C=C/c1ccc(O)c(OC)c1)C(C)C

Result:
122
238

---

Please go through the items and note down their solubility.
# test_summary: Kinetic solubility in PBS (HPLC solubility assay)
# experimental_parameters: PBS, aqueous buffer, kinetic from dmso stock, Solubility sample 2, Tables S1–S3, replicate 2
Answers are plain numbers, in µM.

Worked examples, 3 compounds total:
CCOC(=O)[C@@H](CCC(=O)NCCCOCCOCCOCCCNC(=O)Cc1ccc(C(C(=O)NC2CCCC2)N(C(=O)c2cc(-c3ccccc3)n(-c3ccccc3)n2)c2ccc3c(c2)CCC3)cc1)NC(=O)[C@@H](NC(=O)CNC(=O)/C=C/c1ccc(O)c(OC)c1)C(C)C (stereo partly shown)    1.38
CCOC(=O)[C@H](CCC(=O)NCCNC(=O)Cc1ccc(C(C(=O)NC2CCCC2)N(C(=O)c2cc(-c3ccccc3)n(-c3ccccc3)n2)c2ccc3c(c2)CCC3)cc1)NC(=O)[C@@H](NC(=O)CNC(=O)/C=C/c1ccc(O)c(OC)c1)C(C)C (stereo partly shown)    0.83
CCOC(=O)[C@H](CCC(=O)NCCOCCOCCNC(=O)Cc1ccc(C(C(=O)NC2CCCC2)N(C(=O)c2cc(-c3ccccc3)n(-c3ccccc3)n2)c2ccc3c(c2)CCC3)cc1)NC(=O)[C@H](NC(=O)CNC(=O)/C=C/c1ccc(O)c(OC)c1)C(C)C (stereo partly shown)    1.68

We next turn to a different compound, shown below.
The measured solubility associated with O=C(O)Cc1ccc(C(C(=O)NC2CCCC2)N(C(=O)c2cc(-c3ccccc3)n(-c3ccccc3)n2)c2ccc3c(c2)CCC3)cc1 (stereo not shown) [Compound 4, reference compound] reads 226
